MEASUREMENT_TARGET: FLT3-ITD (Homo sapiens, UniProt P36888, ITD)
Sequence (P36888 27-993, change not shown): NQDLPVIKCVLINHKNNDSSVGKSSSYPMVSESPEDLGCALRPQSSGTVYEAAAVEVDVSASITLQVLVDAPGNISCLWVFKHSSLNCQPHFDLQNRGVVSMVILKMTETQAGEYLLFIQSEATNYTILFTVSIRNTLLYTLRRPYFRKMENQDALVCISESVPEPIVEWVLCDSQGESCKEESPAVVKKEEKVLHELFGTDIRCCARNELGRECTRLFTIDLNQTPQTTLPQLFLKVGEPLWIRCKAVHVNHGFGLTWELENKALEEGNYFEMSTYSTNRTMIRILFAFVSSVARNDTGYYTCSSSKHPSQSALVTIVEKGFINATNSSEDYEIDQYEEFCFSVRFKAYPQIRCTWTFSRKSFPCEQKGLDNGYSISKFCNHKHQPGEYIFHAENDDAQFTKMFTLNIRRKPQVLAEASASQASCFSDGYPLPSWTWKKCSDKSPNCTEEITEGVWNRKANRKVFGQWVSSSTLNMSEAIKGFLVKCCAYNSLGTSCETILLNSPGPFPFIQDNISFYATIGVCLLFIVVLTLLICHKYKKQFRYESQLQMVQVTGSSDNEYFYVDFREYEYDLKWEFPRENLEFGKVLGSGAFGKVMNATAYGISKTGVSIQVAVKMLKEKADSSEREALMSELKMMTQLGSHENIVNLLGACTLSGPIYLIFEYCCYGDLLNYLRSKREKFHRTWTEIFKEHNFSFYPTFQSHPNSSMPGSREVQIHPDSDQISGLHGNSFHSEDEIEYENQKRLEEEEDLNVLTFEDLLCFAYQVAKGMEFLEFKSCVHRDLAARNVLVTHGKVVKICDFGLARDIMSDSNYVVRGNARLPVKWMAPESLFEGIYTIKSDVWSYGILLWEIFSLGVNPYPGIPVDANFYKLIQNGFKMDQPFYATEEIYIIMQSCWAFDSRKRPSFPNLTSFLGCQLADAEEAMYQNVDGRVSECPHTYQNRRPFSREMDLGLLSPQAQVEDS
ASSAY_PROCEDURE: Kinase inhibition assay FLT3-ITD
Format: biochemical
STUDY_CONDITIONS: at least duplicate experiments; read-out: IC50 FLT3-ITD
PROPERTY_NAME: IC50 (nM)
One number for each entry, in nM.

{"columns": ["COMPOUND", "IC50 [nM]"],
 "data": [
  ["O=c1[nH]c2cnc(Nc3ccc(N4CCNCC4)cc3)nc2n1C1CCCC1 [13a]", 2370]
]}

// for each compound in input: emit IC50
1. Cn1c(=O)n([C@H]2CC[C@H](C)CC2)c2nc(Nc3ccc(N4CCNCC4)cc3)ncc21 [14g]
2. CC(C)n1c(=O)n(C2CCCC2)c2nc(Nc3ccc(N4CCNCC4)cc3)ncc21 [15a]
3. CC(C)n1c(=O)n(C2CCCCC2)c2nc(Nc3ccc(N4CCNCC4)cc3)ncc21 [15b]
4. FC(F)(F)c1nc2cnc(Nc3ccc(N4CCNCC4)cc3)nc2n1C1CCCCC1 [12b]
5. Cn1c(=O)n(C2CCC2)c2nc(Nc3ccc(N4CCNCC4)cc3)ncc21 [14c]
6. Cn1c(=O)n(C2CCCCCC2)c2nc(Nc3ccc(N4CCNCC4)cc3)ncc21 [14h]
7. COc1ccccc1-n1c(=O)n(C)c2cnc(Nc3ccc(N4CCNCC4)cc3)nc21 [14p]

-- reply
68
37
68
60
56
34
306

-- ask Given COc1ccc(-n2c(=O)n(C)c3cnc(Nc4ccc(N5CCNCC5)cc4)nc32)cc1 [14q] , state its recorded IC50.
-- reply 262

---

Kindly supply the reported IC50 values for the records listed here.
MEASUREMENT_TARGET: CDK4/D1 (Homo sapiens)
Sequence (P11802 whole entry): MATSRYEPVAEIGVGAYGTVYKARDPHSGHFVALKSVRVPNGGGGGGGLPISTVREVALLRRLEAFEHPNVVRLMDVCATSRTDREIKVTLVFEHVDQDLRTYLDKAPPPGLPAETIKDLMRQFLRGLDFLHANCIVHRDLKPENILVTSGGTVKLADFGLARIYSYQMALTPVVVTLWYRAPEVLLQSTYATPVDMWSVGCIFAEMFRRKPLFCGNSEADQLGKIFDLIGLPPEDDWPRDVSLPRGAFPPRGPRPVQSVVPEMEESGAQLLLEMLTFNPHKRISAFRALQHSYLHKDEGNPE
Sequence (P24385 whole entry partner): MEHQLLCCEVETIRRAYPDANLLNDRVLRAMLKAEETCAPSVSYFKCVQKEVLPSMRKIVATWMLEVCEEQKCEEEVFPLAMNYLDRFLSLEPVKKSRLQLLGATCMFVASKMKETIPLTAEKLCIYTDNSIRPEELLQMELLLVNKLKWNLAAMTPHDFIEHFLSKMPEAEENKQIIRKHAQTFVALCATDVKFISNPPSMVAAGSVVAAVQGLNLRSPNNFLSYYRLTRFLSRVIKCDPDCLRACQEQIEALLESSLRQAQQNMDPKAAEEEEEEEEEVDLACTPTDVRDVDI
ASSAY_PROCEDURE: Kinase inhibition assay CDK4/D1
Assay type: biochemical
STUDY_CONDITIONS: at least duplicate experiments; read-out: IC50 CDK4/D1

{"columns": ["MOLECULE", "IC50"],
 "data": [
  ["Cn1c(=O)n(-c2ccccc2)c2nc(Nc3ccc(N4CCNCC4)cc3)ncc21 [14m]", "400 nM"],
  ["CC1CCC(n2c(=O)[nH]c3cnc(Nc4ccc(N5CCNCC5)cc4)nc32)CC1 (stereo not shown) [13c]", "451 nM"],
  ["O=c1[nH]c2cnc(Nc3ccc(N4CCNCC4)cc3)nc2n1C1CCCCC1 [13b]", "782 nM"],
  ["COc1ccccc1-n1c(=O)n(C)c2cnc(Nc3ccc(N4CCNCC4)cc3)nc21 [14p]", "2720 nM"],
  ["CC1CCC(n2c(C(F)(F)F)nc3cnc(Nc4ccc(N5CCNCC5)cc4)nc32)CC1 (stereo not shown) [12c]", "12 nM"]
]}

// for each molecule in input: emit IC50
1. Cn1c(=O)n(C2CCCCCCC2)c2nc(Nc3ccc(N4CCNCC4)cc3)ncc21 [14i]
2. COc1ccc(Cn2c(=O)n(C)c3cnc(Nc4ccc(N5CCNCC5)cc4)nc32)c(OC)c1 [14r]

-- reply
25 nM
> 20000 nM

// for each molecule in input: emit IC50
1. Cn1c(=O)n([C@H]2CC[C@H](C)CC2)c2nc(Nc3ccc(N4CCNCC4)cc3)ncc21 [14g]
2. COc1ccc(-n2c(=O)n(C)c3cnc(Nc4ccc(N5CCNCC5)cc4)nc32)cc1 [14q]
3. Cn1c(=O)n([C@H]2CC[C@H](O)CC2)c2nc(Nc3ccc(N4CCNCC4)cc3)ncc21 [14f]
4. Cn1c(=O)n(C2CCCCC2)c2nc(Nc3ccc(N4CCNCC4)cc3)ncc21 [14e]

-- reply
1. 27 nM
2. 488 nM
3. 250 nM
4. 20 nM

// for each molecule in input: emit IC50
1. CC1CCC(n2c(=O)n(C(C)C)c3cnc(Nc4ccc(N5CCNCC5)cc4)nc32)CC1 (stereo not shown) [15c]
2. Cn1c(=O)n(C2CCCCCC2)c2nc(Nc3ccc(N4CCNCC4)cc3)ncc21 [14h]
3. FC(F)(F)c1nc2cnc(Nc3ccc(N4CCNCC4)cc3)nc2n1C1CCCCC1 [12b]

-- reply
1. 1100 nM
2. 22 nM
3. 16 nM

// for each molecule in input: emit IC50
1. Cn1c(=O)n(C2CCCCCCCCCCC2)c2nc(Nc3ccc(N4CCNCC4)cc3)ncc21 [14j]
2. Cc1ccccc1-n1c(=O)n(C)c2cnc(Nc3ccc(N4CCNCC4)cc3)nc21 [14n]
3. FC(F)(F)c1nc2cnc(Nc3ccc(N4CCNCC4)cc3)nc2n1C1CCCC1 [12a]
4. O=c1[nH]c2cnc(Nc3ccc(N4CCNCC4)cc3)nc2n1C1CCCC1 [13a]
5. O=c1[nH]c2cnc(Nc3ccc(N4CCNCC4)cc3)nc2n1C1CCCCCC1 [13d]
6. Cc1ccc(-n2c(=O)n(C)c3cnc(Nc4ccc(N5CCNCC5)cc4)nc32)cc1 [14o]
7. CC(C)n1c(=O)n(C2CCCC2)c2nc(Nc3ccc(N4CCNCC4)cc3)ncc21 [15a]
8. Cn1c(=O)n(C2CCCC2)c2nc(Nc3ccc(N4CCNCC4)cc3)ncc21 [14d]

-- reply
1. 338 nM
2. 1870 nM
3. 51 nM
4. 2880 nM
5. 479 nM
6. 169 nM
7. 1900 nM
8. 157 nM
